Where do these numbers come from? They come from patent US20210315893A1.

experimentalTarget: human GPCR sphingosine 1-phosphate receptor 2 (Homo sapiens, UniProt O95136)
Construct: host or cells: CHO
Sequence (O95136 whole entry): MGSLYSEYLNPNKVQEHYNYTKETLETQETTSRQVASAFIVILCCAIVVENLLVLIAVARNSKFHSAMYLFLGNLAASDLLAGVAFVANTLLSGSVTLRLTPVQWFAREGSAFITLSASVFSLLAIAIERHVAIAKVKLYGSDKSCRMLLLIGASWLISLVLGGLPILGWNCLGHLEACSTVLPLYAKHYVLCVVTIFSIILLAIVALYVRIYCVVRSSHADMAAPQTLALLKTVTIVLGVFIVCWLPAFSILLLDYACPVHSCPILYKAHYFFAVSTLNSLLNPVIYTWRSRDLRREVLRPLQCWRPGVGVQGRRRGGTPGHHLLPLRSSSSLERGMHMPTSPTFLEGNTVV
assay: S1PR2 antagonist Ca2+ flux assay
Type: cell-based
assaySetup: antagonist mode, CHO-S1PR2 cells, S1P at EC80, Ca2+ fluorescence; read-out: S1P2 EC50 (nM), S1P2 antagonist EC50
Method: Triggering of S1PR2 by administration of Sphingosine-1-phosphate leads to a transient increase in intracellular Ca^2+. The Ca^2+ flux assays are measuring the release of Ca^2+ intracellularly by use of a Ca^2+ sensitive fluorescent dye. The assay is firstly run in agonist mode (incubation of compounds alone) to ensure that the Ca^2+ released measured is not caused by the test compound having an agonistic effect. […]
measureName: EC50 (nM)

molecule: O=c1c2ccccc2c(Cc2nc3cc(Cl)c(OC(F)(F)F)cc3[nH]2)nn1C1CCC1 [Compound 26]
measureName: EC50
recordedNumber: 889
--
molecule: O=C(Cn1nc(Cc2nc3cc(Cl)c(OCC4CC4)c(F)c3[nH]2)c2ccccc2c1=O)N1CCOCC1 [Compound 149]
measureName: EC50
recordedNumber: 30.4
--
molecule: N#Cc1cc2nc(Cc3nn(CC(=O)NC[C@H](O)C(F)(F)F)c(=O)c4ccccc34)[nH]c2cc1OCC(F)F [Compound 191]
measureName: EC50
recordedNumber: 11.8
--
molecule: COCCOc1cc2[nH]c(Cc3nn(CC(=O)N4CCOCC4)c(=O)c4ccccc34)nc2cc1Cl [Compound 174]
measureName: EC50
recordedNumber: 34.9

---

experimentalTarget: human GPCR sphingosine 1-phosphate receptor 2 (Homo sapiens)
Construct: host or cells: CHO
assay: S1PR2 antagonist Ca2+ flux assay
Format: cell-based
assaySetup: antagonist mode, CHO-S1PR2 cells, S1P at EC80, Ca2+ fluorescence; read-out: S1P2 EC50 (nM), S1P2 antagonist EC50

molecule: COCCNC(=O)Cn1nc(Cc2nc3cc(C#N)c(OCC(F)F)cc3[nH]2)c2ccccc2c1=O
unitAbbrev: nM
EC50: 50.2
--
molecule: CC(O)(CNC(=O)Cn1nc(Cc2nc3cc(C#N)c(OCC(F)F)cc3[nH]2)c2ccccc2c1=O)C(F)(F)F (stereo not shown)
unitAbbrev: nM
EC50: 15
--
molecule: N#Cc1cc2nc(Cc3nn(CC(=O)N4CCOCC4)c(=O)c4ccccc34)[nH]c2cc1OCC(F)F
unitAbbrev: nM
EC50: 30
--
molecule: CC(C)COc1cc2[nH]c(Cc3nn(CC(=O)N4CCOCC4)c(=O)c4ccccc34)nc2cc1Cl
unitAbbrev: nM
EC50: 16

---

experimentalTarget: human GPCR sphingosine 1-phosphate receptor 1 (Homo sapiens)
Construct: host or cells: CHO
Sequence (P21453 whole entry): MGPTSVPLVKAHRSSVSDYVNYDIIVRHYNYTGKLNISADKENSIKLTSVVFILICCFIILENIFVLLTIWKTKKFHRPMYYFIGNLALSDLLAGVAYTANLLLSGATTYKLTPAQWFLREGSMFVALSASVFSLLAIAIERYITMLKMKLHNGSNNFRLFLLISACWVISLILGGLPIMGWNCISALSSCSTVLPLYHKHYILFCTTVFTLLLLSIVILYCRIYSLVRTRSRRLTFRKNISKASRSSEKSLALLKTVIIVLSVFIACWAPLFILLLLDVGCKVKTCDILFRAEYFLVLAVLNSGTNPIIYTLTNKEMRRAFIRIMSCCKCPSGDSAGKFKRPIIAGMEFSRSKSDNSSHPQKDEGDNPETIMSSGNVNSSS
assay: S1PR1 selectivity Ca2+ flux assay (antagonist readout)
Assay type: cell-based
assaySetup: antagonist readout, CHO cells overexpressing human S1PR1 and Gq, S1P at EC80 (6 nM); read-out: S1P1 EC50 (nM), S1P1 antagonist EC50
Reported EC50 values are given for each entry in this list.
measureName: EC50

compound: O=c1c2ccccc2c(Cc2nc3cc(Cl)c(OC(F)(F)F)cc3[nH]2)nn1C1CCNC1 (stereo not shown)
experimentalTarget: human GPCR sphingosine 1-phosphate receptor 1 (Homo sapiens)
result: ≥ 19800 nM

compound: N#Cc1cc2[nH]c(Cc3nn(CC(=O)N4CCC(O)C(F)(F)C4)c(=O)c4ccccc34)nc2cc1OCC(F)F (stereo not shown)
experimentalTarget: human GPCR sphingosine 1-phosphate receptor 1 (Homo sapiens)
result: ≥ 19800 nM

compound: O=C(O)Cn1nc(Cc2nc3cc(Cl)c(OCC4CC4)c(F)c3[nH]2)c2ccccc2c1=O
experimentalTarget: human GPCR sphingosine 1-phosphate receptor 1 (Homo sapiens)
result: ≥ 19800 nM

compound: CS(=O)(=O)NC(=O)Cn1nc(Cc2nc3cc(OCC4CC4)c(Cl)cc3[nH]2)c2ccccc2c1=O
experimentalTarget: human GPCR sphingosine 1-phosphate receptor 1 (Homo sapiens)
result: 560 nM

compound: O=C(O)Cn1nc(Cc2nc3cc(OCC4CC4)c(F)cc3[nH]2)c2ccccc2c1=O
experimentalTarget: human GPCR sphingosine 1-phosphate receptor 1 (Homo sapiens)
result: 13200 nM

compound: CCOc1cc2[nH]c(Cc3nn(CC(=O)N4CCOCC4)c(=O)c4ccccc34)nc2cc1C#N
experimentalTarget: human GPCR sphingosine 1-phosphate receptor 1 (Homo sapiens)
result: ≥ 19800 nM

compound: N#Cc1cc2nc(Cc3nn(CC(=O)N4CCOCC4)c(=O)c4ccccc34)[nH]c2cc1OCC(F)F
experimentalTarget: human GPCR sphingosine 1-phosphate receptor 1 (Homo sapiens)
result: ≥ 19800 nM

---

experimentalTarget: human GPCR sphingosine 1-phosphate receptor 5 (Homo sapiens, UniProt Q9H228)
Construct: host or cells: CHO
Sequence (Q9H228 whole entry): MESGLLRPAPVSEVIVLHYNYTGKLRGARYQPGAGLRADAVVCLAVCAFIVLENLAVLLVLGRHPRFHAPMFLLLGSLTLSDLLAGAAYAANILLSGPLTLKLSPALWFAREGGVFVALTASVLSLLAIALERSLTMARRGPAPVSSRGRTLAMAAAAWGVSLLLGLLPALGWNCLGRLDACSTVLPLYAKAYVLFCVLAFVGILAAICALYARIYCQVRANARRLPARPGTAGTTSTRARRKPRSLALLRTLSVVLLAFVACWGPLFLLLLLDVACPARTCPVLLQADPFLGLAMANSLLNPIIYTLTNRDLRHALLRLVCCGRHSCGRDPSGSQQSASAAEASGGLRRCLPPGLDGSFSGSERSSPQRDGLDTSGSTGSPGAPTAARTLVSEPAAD
assay: S1PR5 selectivity Ca2+ flux assay (antagonist readout)
Format: cell-based
assaySetup: CHO cells overexpressing human S1PR5 and Gq, agonist at EC80 (20 nM), read-out: S1P5 EC50 (nM), S1P5 antagonist EC50
measureName: EC50 (nM)

molecule: CC(C(=O)NS(C)(=O)=O)c1nn(Cc2cn3cc(OCC4CC4)c(Cl)cc3n2)c2ccccc2c1=O (stereo not shown)
experimentalTarget: human GPCR sphingosine 1-phosphate receptor 5 (Homo sapiens, UniProt Q9H228)
recordedNumber: 19800
--
molecule: O=C(O)C1(c2nn(Cc3cn4cc(OCC5CC5)c(Cl)cc4n3)c3ccccc3c2=O)CC1
experimentalTarget: human GPCR sphingosine 1-phosphate receptor 5 (Homo sapiens, UniProt Q9H228)
recordedNumber: 19800
--
molecule: N#Cc1cc2[nH]c(Cc3nn(CC(=O)O)c(=O)c4ccccc34)nc2cc1OCC1CC1
experimentalTarget: human GPCR sphingosine 1-phosphate receptor 5 (Homo sapiens, UniProt Q9H228)
recordedNumber: 19800
--
molecule: COCCOc1cc2nc(Cc3nn(C4CCNC4)c(=O)c4ccccc34)[nH]c2cc1C#N (stereo not shown)
experimentalTarget: human GPCR sphingosine 1-phosphate receptor 5 (Homo sapiens, UniProt Q9H228)
recordedNumber: 19800

---

experimentalTarget: human GPCR sphingosine 1-phosphate receptor 1 (Homo sapiens)
Construct: host or cells: CHO
assay: S1PR1 selectivity Ca2+ flux assay (antagonist readout)
Type: cell-based
assaySetup: antagonist readout, CHO cells overexpressing human S1PR1 and Gq, S1P at EC80 (6 nM); read-out: S1P1 EC50 (nM), S1P1 antagonist EC50
Reported EC50 values are given for each entry in this list.

molecule: N#Cc1cc2[nH]c(Cc3nn(CC4CCCN4CC(=O)O)c(=O)c4ccccc34)nc2cc1OCC(F)F (centres unmarked)
EC50: ≥ 19800 nM
//
molecule: O=C(Cc1nn(Cc2nc3cc(OCC(F)F)c(F)cc3[nH]2)c2ccccc2c1=O)N1CCOCC1
EC50: ≥ 19800 nM
//
molecule: COC(C(=O)O)c1nn(Cc2cn3cc(OCC4CC4)c(Cl)cc3n2)c2ccccc2c1=O (centres unmarked)
EC50: ≥ 19800 nM
//
molecule: O=c1c2ccccc2c(Cc2nc3cc(Cl)c(OCC(F)F)cc3[nH]2)nn1C1CC1
EC50: ≥ 19800 nM
//
molecule: C[C@@H](C(=O)O)n1nc(Cn2cc3cc(OCC4CC4)c(Cl)cc3n2)c2ccccc2c1=O
EC50: ≥ 19800 nM
//
molecule: O=C(O)Cn1nc(Cn2[nH]c3cc(OCC4CC4)c(Cl)cc3c2=O)c2ccccc2c1=O
EC50: 12000 nM
//
molecule: CN1CCC(n2nc(Cc3nc4cc(OCC(F)F)c(C#N)cc4[nH]3)c3ccccc3c2=O)C1 (centres unmarked)
EC50: ≥ 19800 nM
//
molecule: O=C(Cn1nc(Cc2nc3cc(OC(F)(F)F)c(Cl)cc3[nH]2)c2ccccc2c1=O)N[C@H]1CCC[C@H]1O
EC50: ≥ 19900 nM

---

experimentalTarget: human GPCR sphingosine 1-phosphate receptor 1 (Homo sapiens)
Construct: host or cells: CHO
assay: S1PR1 selectivity Ca2+ flux assay (antagonist readout)
Type: cell-based
assaySetup: antagonist readout, CHO cells overexpressing human S1PR1 and Gq, S1P at EC80 (6 nM); read-out: S1P1 EC50 (nM), S1P1 antagonist EC50

compound: O=C(Cn1nc(Cc2nc3cc(OC(F)(F)F)c(Cl)cc3[nH]2)c2ccccc2c1=O)NC1CCS(=O)(=O)CC1 [Compound 141]
EC50: ≥ 19900 nM
--
compound: N#Cc1cc2[nH]c(Cc3nn(C4CN(CC(=O)O)C4)c(=O)c4ccccc34)nc2cc1OCC(F)F [Compound 69]
EC50: ≥ 19800 nM
--
compound: O=c1c2ccccc2c(Cc2nc3cc(Cl)c(OC(F)(F)F)cc3[nH]2)nn1CC1CCNC1 (stereo not shown) [Compound 57]
EC50: ≥ 19800 nM
--
compound: CC1(O)CCN(C(=O)Cn2nc(Cc3nc4cc(OCC(F)F)c(C#N)cc4[nH]3)c3ccccc3c2=O)C1 (stereo not shown) [Compound 201]
EC50: 13200 nM
